Test system: HEK-293T
Test: Multiplex assay against HEK293T
Type: toxicity, cell-based
Conditions: human, 24 h, 10 µM, compound concentration 10 uM, replicate 1
READOUT KIND: Population Pyknosed Nuclei (%)

1. CNC(=O)c1cc(Oc2ccc(NC(=O)Nc3cc(C(C)(C)C)nn3-c3ccc4ncccc4c3)c(F)c2)ccn1	40
2. CCOc1cc2ncc(C#N)c(Nc3ccc(OCc4cccc(F)c4)c(Cl)c3)c2cc1NC(=O)/C=C/CN(C)C	28
3. CN(C)C/C=C/C(=O)Nc1cc2c(Nc3ccc(F)c(Cl)c3)ncnc2cc1O[C@H]1CCOC1.O=C(O)/C=C\C(=O)O.O=C(O)/C=C\C(=O)O [AFATINIB DIMALEATE]	42
4. COc1cc2c(NC3CCN(C(C)C)CC3)nc(N3CCC(F)(F)CC3)nc2cc1OCCCN1CCCC1	65
5. Cl.Cl.Nc1ncnc2c1c(-c1cccc(OCc3ccccc3)c1)cn2[C@H]1C[C@@H](CN2CCC2)C1	73

----------
Tested on: HEK-293T
Experiment: Incucyte cell viability with HEK293T; also: filed as whole numbers so only -1 and 0 and 1 occur
Type: toxicity, cell-based
Conditions: human, 18 h, 10 µM, compound concentration 10 uM, replicate number 1, timepoint 18 hours
READOUT KIND: Growth Rate

1. CN1CC(=O)N=C1NC(=O)Nc1cccc(Cl)c1 [FENOBAM ANHYDROUS]	1
2. Nc1nc2c(c(N3CCNCC3)n1)CCC1=C2[C@@H]2CCCC[C@@H]2O1	0
3. CCc1cc2c(c(CC)n1)CCC(=O)N2Cc1ccc(-c2ccccc2-c2nnn[nH]2)cc1.Cl	1
4. Cc1cc(C)c(N)c(C#Cc2cccc(F)c2)n1.Cl	0
5. Cn1cc(-c2ccc3occ(-c4ccccc4-c4ccccc4)c3n2)cn1	1
6. CCCOc1ccc([C@@H]2[C@@H](C(=O)O)[C@H](c3ccc4c(c3)OCO4)CN2CC(=O)Nc2c(CC)cccc2CC)cc1	1
7. COc1cc2c(cc1-c1c(C)noc1C)ncc1[nH]c(=O)n([C@H](C)c3ccccn3)c12	0
8. CS(=O)(=O)N1CCN(Cc2cc3nc(-c4cccc5[nH]ncc45)nc(N4CCOCC4)c3s2)CC1	0
9. CN(C)CCOc1ccc(-c2nc(-c3ccncc3)c(-c3ccc4c(c3)CC/C4=N\O)[nH]2)cc1	0
10. Cc1cc(C(=O)N2Cc3cnn(C)c3Nc3ccccc32)ccc1CNC(=O)N1CCC[C@H]1C(=S)N1CCCN(C)CC1	0
11. O=C(O)c1ccc2c(c1)nc(Nc1cccc(Cl)c1)c1ccncc12	0
12. Cc1cc(SCc2sc(-c3ccc(C(F)(F)F)c(F)c3)nc2C)ccc1OCC(=O)O	0
13. O=C(NCc1ccc(F)cc1)C1CCN(S(=O)(=O)c2cc(Cl)cc(Cl)c2)CC1	0
14. CCC(=O)N[C@H]1CC[C@@H](C(=O)N(C)c2ccc(-c3nc4ccccc4o3)cc2)C1	0
15. CCC(=O)O[C@]1(C(=O)SCF)[C@H](C)C[C@H]2[C@@H]3C[C@H](F)C4=CC(=O)C=C[C@]4(C)[C@@]3(F)[C@@H](O)C[C@@]21C [FLUTICASONE PROPIONATE]	0
16. O=C(O)COc1cccc(CN(Cc2ccc(-n3cccn3)cc2)S(=O)(=O)c2cccnc2)c1	1
17. Cc1nc(Cc2cccc(C(F)(F)F)c2)sc1-c1ccc(C(N)=O)nc1 [TP-024n]	0

----------
System: HEK-293T
Assay: Multiplex assay against HEK293T
Format: toxicity, cell-based
Conditions: human, 24 h, 10 µM, compound concentration 10 uM, replicate 1
READOUT KIND: Population Mitochondria Different-Phenotype (%)

1. CC(C)(C)c1cnc(CSc2cnc(NC(=O)C3CCNCC3)s2)o1	34
2. c1ccc2oc(-c3csc(C4CCN(Cc5nc6ncccc6[nH]5)CC4)n3)cc2c1	5
3. CCCn1c(=O)c2[nH]c(C34CC5CC(CC3C5)C4)nc2n(CCC)c1=O	97
4. Cc1nc(Cc2cccc(C(F)(F)F)c2)sc1-c1ccc(C(N)=O)nc1 [TP-024n]	86
5. CC(C)N1CCC(C)(C)c2cc(C#Cc3ccc(C(=O)O)cc3)ccc21	37
6. COc1cc2c(Nc3ccc(NC(=O)c4ccccc4)cc3)ncnc2cc1OCCCN1CCOCC1	5
7. CNC(=O)c1cc(Oc2ccc(NC(=O)Nc3cc(C(C)(C)C)nn3-c3ccc4ncccc4c3)c(F)c2)ccn1	58

----------
The following compounds are shown together with reported Population Pyknosed Nuclei (%) values.
Tested on: U2OS
Assay: Multiplex assay against U2OS
Assay type: toxicity, cell-based
Conditions: human, 48 h, 10 µM, compound concentration 10 uM, replicate 2
READOUT KIND: Population Pyknosed Nuclei (%)

1) CCCn1c(=O)c2[nH]c(C34CC5CC(CC3C5)C4)nc2n(CCC)c1=O	40
2) Nc1nc2c(c(N3CCNCC3)n1)CCC1=C2[C@@H]2CCCC[C@@H]2O1	50
3) COc1cc2c(NC3CCN(C(C)C)CC3)nc(N3CCC(F)(F)CC3)nc2cc1OCCCN1CCCC1	24
4) CCn1c(-c2nonc2N)nc2cnc(Oc3cccc(NC(=O)c4ccc(OCCN5CCOCC5)cc4)c3)cc21 [GSK-269962A]	27

----------
System: HEK-293T
Test: Multiplex assay against HEK293T
Format: toxicity, cell-based
Details: human, 48 h, 1 µM, compound concentration 1 uM, replicate 2
READOUT KIND: Population Membrane Permeable-Phenotype (%)

1. CC(C)N1CCC(C)(C)c2cc(C#Cc3ccc(C(=O)O)cc3)ccc21	5
2. CCn1c(-c2nonc2N)nc2cnc(Oc3cccc(NC(=O)c4ccc(OCCN5CCOCC5)cc4)c3)cc21 [GSK-269962A]	5
3. CCC(=O)O[C@]1(C(=O)SCF)[C@H](C)C[C@H]2[C@@H]3C[C@H](F)C4=CC(=O)C=C[C@]4(C)[C@@]3(F)[C@@H](O)C[C@@]21C [FLUTICASONE PROPIONATE]	5
4. Nc1nc2c(c(N3CCNCC3)n1)CCC1=C2[C@@H]2CCCC[C@@H]2O1	9
5. Cl.Cl.Nc1ncnc2c1c(-c1cccc(OCc3ccccc3)c1)cn2[C@H]1C[C@@H](CN2CCC2)C1	1
6. Cc1nc(Cc2cccc(C(F)(F)F)c2)sc1-c1ccc(C(N)=O)nc1 [TP-024n]	5
7. O=C(O)c1ccc2cc(-c3ccc(O)c(C45CC6CC(CC(C6)C4)C5)c3)ccc2c1	11
8. Cc1cc2c(cc1N1C(=O)c3cccc4c(CCCO)ccc(c34)C1=O)n(C)c(=O)n2C	10

----------
Test system: Fibroblast
Experiment: Multiplex assay against human fibroblast
Assay type: toxicity, cell-based
Conditions: 48 h, 1 µM, compound concentration 1 uM, replicate 2
Cut-off 2% on Population Mitochondria Different-Phenotype (%), inclusive. At or above means 1.0; below means 0.0.

1) CCn1c(-c2nonc2N)nc2cnc(Oc3cccc(NC(=O)c4ccc(OCCN5CCOCC5)cc4)c3)cc21 [GSK-269962A]	0.0
2) Nc1ccc(C(=O)Nc2cccc(-c3nc(N4CCOCC4)c4oc5ncccc5c4n3)c2)cn1	1.0
3) Cl.Cl.Nc1ncnc2c1c(-c1cccc(OCc3ccccc3)c1)cn2[C@H]1C[C@@H](CN2CCC2)C1	1.0
4) COc1ccc(NS(=O)(=O)c2sc3ccc(Cl)cc3c2C)cc1N1CCNCC1.Cl	0.0
5) COc1cc2c(NC3CCN(C(C)C)CC3)nc(N3CCC(F)(F)CC3)nc2cc1OCCCN1CCCC1	0.0
6) CCCn1c(=O)c2[nH]c(C34CC5CC(CC3C5)C4)nc2n(CCC)c1=O	1.0
7) Cc1nc(Cc2cccc(C(F)(F)F)c2)sc1-c1ccc(C(N)=O)nc1 [TP-024n]	0.0
8) CC(C)N1CCC(C)(C)c2cc(C#Cc3ccc(C(=O)O)cc3)ccc21	1.0

----------
Tested on: Fibroblast
Assay: Multiplex assay against human fibroblast
Assay type: toxicity, cell-based
Settings: 12 h, 10 µM, compound concentration 10 uM, replicate 2
Response field label: string, one of rule met (Population Mitotic Cells (%) strictly below 30%) or rule not met.

1) N#Cc1cnc(Nc2cc(NC[C@H]3CNCCO3)c(C(F)(F)F)cn2)cn1 [SRA-737]	rule not met
2) O=C(O)c1ccc2cc(-c3ccc(O)c(C45CC6CC(CC(C6)C4)C5)c3)ccc2c1 [O-DEMETHYLATED ADAPALENE]	rule met
3) c1ccc2oc(-c3csc(C4CCN(Cc5nc6ncccc6[nH]5)CC4)n3)cc2c1	rule not met
4) Cc1nc(Cc2cccc(C(F)(F)F)c2)sc1-c1ccc(C(N)=O)nc1 [TP-024n]	rule not met
5) CCc1cc2c(cc1CC)CC(NC[C@H](O)c1ccc(O)c3[nH]c(=O)ccc13)C2 [INDACATEROL]	rule not met
6) COc1cc2c(Nc3ccc(NC(=O)c4ccccc4)cc3)ncnc2cc1OCCCN1CCOCC1	rule not met
7) CC(C)N1CCC(C)(C)c2cc(C#Cc3ccc(C(=O)O)cc3)ccc21	rule met
8) CC(C)(C)c1cnc(CSc2cnc(NC(=O)C3CCNCC3)s2)o1 [BMS-387032]	rule not met
9) CNc1oc(-c2cccc3ccccc23)nc1C#N	rule met
